The reported numbers originate from patent US8741947B2.

Test System: Neurospora crassa vacuolar membrane V-ATPase
Method Summary: V-ATPase inhibitory assay, Neurospora crassa vacuolar membrane
Format: biochemical
Test Settings: read-out: V-ATPase (Ki, nM) NCVM
Procedure: The V-ATPase inhibitory assays were performed on representative compound(s) of the present invention using non-mammalian or mammalian (e.g., bovine cromaffin granule) V-ATPases as described by Bowman et al., Proc. Natl. Acad. Sci. USA, 85, 7972-7976, 1988.
Listed molecules paired with reported Ki
Numbers only; they are read as nM.

// below: answered molecules
Molecule	Value Units	Measurement
COC(=O)C(C)(C)C(O)C(C)C(=O)C(C)(C)C=CC(=O)NC(C(O)C(C)C)C(O)C(C)C=C(C)C(O)C(C)CCC(O)C(C)C(=O)NC(C(C)O)C1OC(=O)C(C(O)C(=O)O)NC(=O)C=CC=CCCC=CC=CCC2CC(C)CC(CC(O)C(C)C(O)C(C)=CC(C)C(O)C(C)=CCC(O)C1C)O2 (stereo not drawn)	nM	200
COC(=O)C(C)(C)C(O)C(C)C(=O)C(C)(C)C=CC(=O)NC(CC(C)C)C(O)C(C)C=C(C)C(O)C(C)CCC(O)C(C)C(=O)NC(C(C)O)C1OC(=O)C(C(O)C(=O)O)NC(=O)C=CC=CCCC=CC=CCC2CC(C)CC(CC(O)C(C)C(O)C(C)=CC(C)C(O)C(C)=CCC(OC(=O)CC(O)C(=O)O)C1C)O2 (stereo not drawn)	nM	100
COC(=O)C(C)(C)C(O)C(C)C(=O)C(C)(C)C=CC(=O)NC(C(O)C(C)C)C(O)C(C)C=C(C)C(O)C(C)CCC(O)C(C)C(=O)NC1C(C)OC(=O)C(C(O)C(=O)O)NC(=O)C=CC=CCCC=CC=CCC2CC(C)CC(CC(O)C(C)C(O)C(C)=CC(C)C(O)C(C)=CCC(OC(=O)CC(O)C(=O)O)C(C)C1O)O2 (stereo not drawn)	nM	140
CC1=CCC(OC(=O)CC(O)C(=O)O)C(C)C(C(NC(=O)C(C)C(O)CCC(C)C(O)C(C)=CC(C)C(O)C(CC(C)C)NC(=O)C=CC(C)(C)C(=O)C(C)C(O)C(C)C)C(C)O)OC(=O)C(C(O)C(=O)O)NC(=O)C=CC=CCCC=CC=CCC2CC(C)CC(CC(O)C(C)C(O)C(C)=CC(C)C1O)O2 (stereo not drawn)	nM	80
COC(=O)C(O)CC(=O)OC1CC=C(C)C(O)C(C)C=C(C)C(O)C(C)C(O)CC2CC(C)CC(CC=CC=CCCC=CC=CC(=O)NC(C(O)C(=O)OC)C(=O)OC(C(NC(=O)C(C)C(O)CCC(C)C(O)C(C)=CC(C)C(O)C(NC(=O)C=CC(C)(C)C(=O)C(C)C(O)C(C)(C)C(=O)OC)C(O)C(C)C)C(C)O)C1C)O2 (stereo not drawn)	nM	50

INPUT: Ki lookup needed for CO/C1=C\C(C)=C\[C@@H](C)[C@@H](O)[C@@H](C)C/C(C)=C/C=C/[C@H](OC)[C@@H]([C@@H](C)[C@@H](O)[C@H](C)[C@@]2(O)C[C@@H](O)[C@H](C)[C@@H](C(C)C)O2)OC1=O [Bafilomycin A1, bafilomycin A1, reference compound] , thanks.
OUTPUT: 13

INPUT: Ki lookup needed for COC(=O)C(C)(C)C(O)C(C)C(=O)C(C)(C)C=CC(=O)NC(C(O)C(C)C)C(O)C(C)C=C(C)C(O)C(C)CCC(O)C(C)C(=O)NC(C(C)O)C1OC(=O)C(C(O)C(=O)O)NC(=O)C=CC=CCCC=CC=CCC2CC(C)CC(CC(O)C(C)C(O)C(C)=CC(C)C(O)C(C)=CCC(OC(=O)CC(O)C(=O)O)C1C)O2 (stereo not drawn) , thanks.
OUTPUT: 800

INPUT: Ki lookup needed for C/C=C/[C@H]1O[C@@](O)([C@@H](C)[C@H](O)[C@H](C)[C@H]2OC(=O)/C(OC)=C/C(C)=C/[C@@H](C)[C@@H](O)[C@@H](CC)[C@@H](O)[C@H](C)C/C(C)=C/C=C/[C@@H]2OC)C[C@@H](O[C@H]2C[C@@H](O)[C@H](OC(N)=O)[C@@H](C)O2)[C@@H]1C [Concanamycin A, concanamycin A, reference compound] , thanks.
OUTPUT: 4
